Value source: ChEMBL document CHEMBL1201862

Tested on: DLD-1
Test name: NCI tumour cell line growth inhibition, 48 h
Calls of active or inactive are those of the source. Cut-off read from the data, not from the text of the source: active = GI50 up to about 1.1 µM and inactive = higher.
# output must be one of Yes for active, No for inactive

[
  {
    "Compound": "COC(=O)C1C2C=CC(C2)C1(C(=O)OC)[S+]([O-])CC12CCC(CC1O)C2(C)C (stereo not given)",
    "Group label": "No"
  }
]

Ask: How did this test come out for C[C@]12CC/C(=N\O)C=C1CC[C@@H]1C2CC[C@@]2(C)C1CC[C@@H]2OC1CCCCO1 (stereo not given in full) ?
Reply: No

Ask: Another: CC(=O)Oc1ccc(O)c(O)c1C/C=C(\C)CC/C=C(\C)CC/C=C(\C)CCC=C(C)C [TETRAPRENYLPHENOLSUILLIN]
Reply: Yes

Ask: Another: COC(=O)/C(=N\Nc1nc(S)nn1N)C(C#N)c1ccc(Cl)cc1 (stereo not given)
Reply: No

Ask: Another: "COCN1COCN(C)C1=O"
Reply: No

* * *

System: HT-29
Test name: NCI tumour cell line growth inhibition, 48 h
Active and inactive are the calls of the source. Rule as the data show it: active = GI50 up to about 1.1 µM and inactive = higher.
Measure name: GI50

Please review the entries below; each comes with its answer.
[
  {
    "Compound": "COc1cccc(C2c3cc4c(cc3OC(N3CCCCC3)C2C)OCO4)c1O (stereo not drawn)",
    "Target or system": "HT-29",
    "Value reported": "3.43 µM (inactive)"
  },
  {
    "Compound": "CSc1nc(NCc2ccccc2)c2cnn(COCCO)c2n1",
    "Target or system": "HT-29",
    "Value reported": "37.8 µM (inactive)"
  },
  {
    "Compound": "O=S(=O)(Nc1ccccc1)c1ccc(-c2c3nc(c(-c4ccc(S(=O)(=O)Nc5ccccc5)cc4)c4ccc([nH]4)c(-c4ccc(S(=O)(=O)Nc5ccccc5)cc4)c4nc(c(-c5ccc(S(=O)(=O)Nc6ccccc6)cc5)c5ccc2[nH]5)C=C4)C=C3)cc1",
    "Target or system": "HT-29",
    "Value reported": "> 31.6 µM (inactive)"
  },
  {
    "Compound": "CCN1CCC(O)(/C=C/c2ccc(C(C)C)cc2)C(C(=O)/C=C/c2ccc(C(C)C)cc2)C1 (stereo not drawn)",
    "Target or system": "HT-29",
    "Value reported": "2.24 µM (inactive)"
  },
  {
    "Compound": "Cc1nc(Nc2ccc(Cl)cc2Cl)sc1C(=O)Nc1ccccc1",
    "Target or system": "HT-29",
    "Value reported": "35.3 µM (inactive)"
  },
  {
    "Compound": "COc1ccc(C(C2=C(O)COC2=O)c2cc3c(cc2O)OCO3)cc1OC (stereo not drawn)",
    "Target or system": "HT-29",
    "Value reported": "> 100 µM (inactive)"
  },
  {
    "Compound": "COC1=C(OC)C(=O)C(Cc2c(-c3ccccc3)nc3sc(Cl)cn23)=C(C)C1=O",
    "Target or system": "HT-29",
    "Value reported": "20.1 µM (inactive)"
  }
]

Ask: For "COc1cccc2c(NNc3ccc(Cl)cc3)c3ccc([N+](=O)[O-])cc3nc12" , what is its reported GI50?
Reply: 14.2 µM (inactive)

* * *

System: SF-295
Test name: NCI tumour cell line growth inhibition, 48 h
The source made the active and inactive calls. No stated cut-off is given here; in the data, active = GI50 up to about 1.1 µM and inactive = higher.
Measure name: GI50

[
  {
    "Compound": "Cc1nc2ccc(S(=O)(=O)NS(=O)(=O)c3ccc(-c4ccccc4)cc3)cc2c(=O)n1NS(=O)(=O)c1ccc(-c2ccccc2)cc1",
    "GI50": "> 100 µM (inactive)"
  },
  {
    "Compound": "COc1cccc2cc(C)c(C(=O)c3ccccc3)nc12",
    "GI50": "> 100 µM (inactive)"
  },
  {
    "Compound": "C=CCOc1ccc(N)c([N+](=O)[O-])c1",
    "GI50": "> 100 µM (inactive)"
  },
  {
    "Compound": "COCC1C(=O)c2cc3c(cc2C12C=CC1(C=C2)OCCO1)OCO3 (stereo not given)",
    "GI50": "14.4 µM (inactive)"
  },
  {
    "Compound": "CC(=O)Nc1ccc(NS(=O)(=O)c2ccc3nc(C)n(NS(=O)(=O)c4ccc(NC(C)=O)cc4)c(=O)c3c2)cc1",
    "GI50": "> 100 µM (inactive)"
  }
]

Pending compound:
Ask: For CCN1CCC(O)(/C=C/c2ccc(C(C)C)cc2)C(C(=O)/C=C/c2ccc(C(C)C)cc2)C1 (stereo not given) , what is its reported GI50?
Reply: 2.9 µM (inactive)
